The reported measurements were obtained from patent US8927531B2.

Measured EC50, listed per entry for reference.
# study target: human GPR40 receptor (Homo sapiens, UniProt O14842)
# Sequence (O14842 whole entry): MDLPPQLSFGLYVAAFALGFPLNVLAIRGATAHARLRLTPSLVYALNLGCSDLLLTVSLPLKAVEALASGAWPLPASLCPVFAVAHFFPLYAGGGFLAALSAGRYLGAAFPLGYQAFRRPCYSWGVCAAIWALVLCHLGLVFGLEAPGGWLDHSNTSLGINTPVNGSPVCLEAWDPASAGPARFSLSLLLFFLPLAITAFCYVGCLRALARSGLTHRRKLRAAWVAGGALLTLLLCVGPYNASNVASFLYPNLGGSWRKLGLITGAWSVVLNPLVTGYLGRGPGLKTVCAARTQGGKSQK
# assay overview: IP1 accumulation measurements using the IPOne assay system in 1321N1 cells stably expressing human GPR40 receptor
# assay setup: stimulation 1 h at 37° C.
Give the value, in units of nM, as a plain number.

Worked examples, 3 compounds total:
>  <compound>
Cc1nc2c(s1)CN(Cc1c(C(F)(F)F)ccc3c1CC[C@H]3Oc1ccc3c(c1)OC[C@H]3CC(=O)O)CC2 [Example 6]

>  <study target>
human GPR40 receptor (Homo sapiens, UniProt O14842)

>  <EC50 (nM)>
2

$$$$
>  <compound>
O=C(O)C[C@@H]1COc2cc(O[C@@H]3CCc4c3ccc(C(F)(F)F)c4CN3CCSCC3)ccc21 [Example 3]

>  <study target>
human GPR40 receptor (Homo sapiens, UniProt O14842)

>  <EC50 (nM)>
3

$$$$
>  <compound>
CC(C)OC(=O)N1CCN(Cc2c(C(F)(F)F)ccc3c2CC[C@H]3Oc2ccc3c(c2)OC[C@H]3CC(=O)O)CC1 [Example 22]

>  <study target>
human GPR40 receptor (Homo sapiens, UniProt O14842)

>  <EC50 (nM)>
14

$$$$

What value of EC50 has been reported for the following compound? O=C(O)C[C@@H]1COc2cc(O[C@@H]3CCc4c3ccc(C(F)(F)F)c4CN3CCn4ccnc4C3)ccc21 [Example 27]
17

Check O=C(O)C[C@@H]1COc2cc(O[C@@H]3CCc4c3ccc(C(F)(F)F)c4CN3CCC(F)(F)CC3)ccc21 [Example 7] too.
3

Check Cc1nc2c(o1)CCN(Cc1c(C(F)(F)F)ccc3c1CC[C@H]3Oc1ccc3c(c1)OC[C@H]3CC(=O)O)C2 [Example 35] too.
3

Check O=C(O)C[C@@H]1COc2cc(O[C@@H]3CCc4c3ccc(C(F)(F)F)c4CN3CCCC3)ccc21 [Example 4] too.
92

====

Measured log10 of EC50, listed per entry for reference.
# study target: human GPR40 receptor (Homo sapiens)
# assay overview: IP1 accumulation measurements using the IPOne assay system in 1321N1 cells stably expressing human GPR40 receptor
# assay setup: stimulation 1 h at 37° C.
Note: values are log10 of EC50 expressed in nM.

Worked examples, 4 compounds total:
>  <structure smiles string>
CC(C)(C)OC(=O)N1CCN(Cc2c(C(F)(F)F)ccc3c2CC[C@H]3Oc2ccc3c(c2)OC[C@H]3CC(=O)O)CC1

>  <log10 of EC50>
1.30

$$$$
>  <structure smiles string>
O=C(O)C[C@@H]1COc2cc(O[C@@H]3CCc4c3ccc(C(F)(F)F)c4CN3CCCCCC3)ccc21

>  <log10 of EC50>
0.85

$$$$
>  <structure smiles string>
O=C(O)C[C@@H]1COc2cc(O[C@@H]3CCc4c3ccc(C(F)(F)F)c4CN3CCc4nocc4C3)ccc21

>  <log10 of EC50>
0.48

$$$$
>  <structure smiles string>
O=C(O)C[C@@H]1COc2cc(O[C@@H]3CCc4c3ccc(C(F)(F)F)c4CN3CCNCC3)ccc21

>  <log10 of EC50>
2.67

$$$$

Under human GPR40 receptor (Homo sapiens): log10 of EC50 value of `O=C(O)C[C@@H]1COc2cc(O[C@@H]3CCc4c3ccc(C(F)(F)F)c4CN3CC4CCC(C3)O4)ccc21` ?
1.15

Check `O=C(O)C[C@@H]1COc2cc(O[C@@H]3CCc4c3ccc(C(F)(F)F)c4CN3CCCCC3)ccc21` too.
0.70

Check `O=C(O)C[C@@H]1COc2cc(O[C@@H]3CCc4c3ccc(C(F)(F)F)c4CN3CCn4nccc4C3)ccc21` too.
0.30

Check `COC(=O)N1CCN(Cc2c(C(F)(F)F)ccc3c2CC[C@H]3Oc2ccc3c(c2)OC[C@H]3CC(=O)O)CC1` too.
0.60

Check `C[C@@H]1CN(Cc2c(C(F)(F)F)ccc3c2CC[C@H]3Oc2ccc3c(c2)OC[C@H]3CC(=O)O)C[C@H](C)O1` too.
1.04

Check `O=C(O)C[C@@H]1COc2cc(O[C@@H]3CCc4c3ccc(C(F)(F)F)c4CN3CCc4ccccc4C3)ccc21` too.
0.48

Check `O=C(O)C[C@@H]1COc2cc(O[C@@H]3CCc4c3ccc(C(F)(F)F)c4CN3CCCOCC3)ccc21` too.
0.48

Check `O=C(O)C[C@@H]1COc2cc(O[C@@H]3CCc4c3ccc(C(F)(F)F)c4CN3CCc4ccsc4C3)ccc21` too.
0.30

Check `O=C(O)C[C@@H]1COc2cc(O[C@@H]3CCc4c3ccc(C(F)(F)F)c4CN3CCc4ncccc4C3)ccc21` too.
0.60

Check `O=C(O)C[C@@H]1COc2cc(O[C@@H]3CCc4c3ccc(C(F)(F)F)c4CN3CCOCC3)ccc21` too.
0.48

====

# study target: human GPR40 receptor (Homo sapiens, UniProt O14842)
# assay overview: IP1 accumulation measurements using the IPOne assay system in 1321N1 cells stably expressing human GPR40 receptor
# assay setup: stimulation 1 h at 37° C.
Measured EC50, listed per entry for reference.
Express the reported value numerically, then name its unit.

Worked examples, 6 compounds total:
>  <structure smiles string>
CC1(O)CCN(Cc2c(C(F)(F)F)ccc3c2CC[C@H]3Oc2ccc3c(c2)OC[C@H]3CC(=O)O)CC1

>  <readout name>
EC50

>  <result>
15 nM

$$$$
>  <structure smiles string>
CC(=O)N1CCN(Cc2c(C(F)(F)F)ccc3c2CC[C@H]3Oc2ccc3c(c2)OC[C@H]3CC(=O)O)CC1

>  <readout name>
EC50

>  <result>
16 nM

$$$$
>  <structure smiles string>
CCC(=O)N1CCN(Cc2c(C(F)(F)F)ccc3c2CC[C@H]3Oc2ccc3c(c2)OC[C@H]3CC(=O)O)CC1

>  <readout name>
EC50

>  <result>
12 nM

$$$$
>  <structure smiles string>
O=C(O)C[C@@H]1COc2cc(O[C@@H]3CCc4c3ccc(C(F)(F)F)c4CN3CCc4ncsc4C3)ccc21

>  <readout name>
EC50

>  <result>
3 nM

$$$$
>  <structure smiles string>
COC1CCN(Cc2c(C(F)(F)F)ccc3c2CC[C@H]3Oc2ccc3c(c2)OC[C@H]3CC(=O)O)CC1

>  <readout name>
EC50

>  <result>
5 nM

$$$$
>  <structure smiles string>
O=C(O)C[C@@H]1COc2cc(O[C@@H]3CCc4c3ccc(C(F)(F)F)c4CN3CCC(CO)CC3)ccc21

>  <readout name>
EC50

>  <result>
9 nM

$$$$

Now let's try a different one.
What value of EC50 has been reported for the following compound? `O=C(O)C[C@@H]1COc2cc(O[C@@H]3CCc4c3ccc(C(F)(F)F)c4CN3CCC4(CC3)CC4)ccc21`
5 nM

====

# study target: human GPR40 receptor (Homo sapiens)
# assay overview: IP1 accumulation measurements using the IPOne assay system in 1321N1 cells stably expressing human GPR40 receptor
# assay setup: stimulation 1 h at 37° C.
# Description: IP1 accumulation measurements using the IPOne assay system—1321N1 cells stably expressing human GPR40 receptor (Euroscreen, Belgium) are seeded 24 h before the assay in white 384-well plates in culture medium containing 10% FCS, 1% Na-Pyruvate and 400 μg/mL G418. IP1 is assayed according to the manufacturer's description (Cisbio Bioassays, France). […] After an incubation time of 1 h at room temperature plates are measured using an EnVision™, Perkin Elmer. […]
pEC50: −log10 of the molar value.
Rule: pEC50 of 8 or more gives Met; anything lower gives Not met.

>  <molecule>
O=C(O)C[C@@H]1COc2cc(O[C@@H]3CCc4c3ccc(C(F)(F)F)c4CN3CC4CC4C3)ccc21 (stereo partly shown)

>  <study target>
human GPR40 receptor (Homo sapiens)

>  <answer label>
Not met

$$$$
>  <molecule>
CN1CCN(Cc2c(C(F)(F)F)ccc3c2CC[C@H]3Oc2ccc3c(c2)OC[C@H]3CC(=O)O)CC1=O

>  <study target>
human GPR40 receptor (Homo sapiens)

>  <answer label>
Not met

$$$$

Now take the following molecule into account.
Is reported pEC50 greater than or equal to 8 here: `Cn1cc2c(n1)CCN(Cc1c(C(F)(F)F)ccc3c1CC[C@H]3Oc1ccc3c(c1)OC[C@H]3CC(=O)O)C2`
Met

====

Measured pEC50, listed per entry for reference.
# study target: human GPR40 receptor (Homo sapiens, UniProt O14842)
# assay overview: IP1 accumulation measurements using the IPOne assay system in 1321N1 cells stably expressing human GPR40 receptor
# assay setup: stimulation 1 h at 37° C.
Note on pEC50: it is the negative log10 of concentration, concentration in mol/L.

Worked examples, 3 molecules total:
>  <molecule>
CCOC(=O)N1CCN(Cc2c(C(F)(F)F)ccc3c2CC[C@H]3Oc2ccc3c(c2)OC[C@H]3CC(=O)O)CC1 [Example 20]

>  <pEC50>
8.05

$$$$
>  <molecule>
O=C(O)C[C@@H]1COc2cc(O[C@@H]3CCc4c3ccc(C(F)(F)F)c4CN3CCC4(CCCO4)CC3)ccc21 [Example 11]

>  <pEC50>
8.22

$$$$
>  <molecule>
CC1(C)CN(Cc2c(C(F)(F)F)ccc3c2CC[C@H]3Oc2ccc3c(c2)OC[C@H]3CC(=O)O)CCO1 [Example 23]

>  <pEC50>
8.15

$$$$

What value of pEC50 has been reported for the following molecule? O=C(O)C[C@@H]1COc2cc(O[C@@H]3CCc4c3ccc(C(F)(F)F)c4CN3C4CCCC3CC4)ccc21 [Example 25]
7.82
